Target: T1, Murine APRIL (mouse, UniProt Q9D777 105-241, limits assumed)
T1 sequence (looked up): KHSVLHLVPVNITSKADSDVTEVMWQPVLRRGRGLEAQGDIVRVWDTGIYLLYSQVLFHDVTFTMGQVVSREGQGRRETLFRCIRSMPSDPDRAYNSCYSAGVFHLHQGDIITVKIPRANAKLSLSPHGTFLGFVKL
Experiment: NNS library, phage display;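 also: ligand versus display occurrence-to-degeneracy ratio and higher means enriched by binding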

BINDER: SLSCRKEQGKFYDHLLNDCISCASICGQHPKQCAYFCENKLR (receptor, phage library variant, format as m9) [TACI_d2 R84N]
F' APRIL: 0
--
BINDER: SLSCRKEQGKFYDHLLSDCISCASICGQHPKQCAYFCENKLR (receptor, phage library variant, format as m9) [TACI_d2 R84S]
F' APRIL: 0
--
BINDER: SLSCRKEQGKRYDHLLRDCISCASICGQHPKQCAYFCENKLR (receptor, phage library variant, format as m9) [TACI_d2 F78R]
F' APRIL: 0
--
BINDER: SLSCRKEQGKFYDHLLWDCISCASICGQHPKQCAYFCENKLR (receptor, phage library variant, format as m9) [TACI_d2 R84W]
F' APRIL: 9
--
BINDER: SLSCRKEQGKFWDHLLRDCISCASICGQHPKQCAYFCENKLR (receptor, phage library variant, format as m9) [TACI_d2 Y79W]
F' APRIL: 3
--
BINDER: SLSCRKEQGKFYDHLLYDCISCASICGQHPKQCAYFCENKLR (receptor, phage library variant, format as m9) [TACI_d2 R84Y]
F' APRIL: 0
--
BINDER: SLSCRKEQGKFNDHLLRDCISCASICGQHPKQCAYFCENKLR (receptor, phage library variant, format as m9) [TACI_d2 Y79N]
F' APRIL: 0
--
BINDER: SLSCRKEQGKGYDHLLRDCISCASICGQHPKQCAYFCENKLR (receptor, phage library variant, format as m9) [TACI_d2 F78G]
F' APRIL: 0
--
BINDER: SLSCRKEQGKTYDHLLRDCISCASICGQHPKQCAYFCENKLR (receptor, phage library variant, format as m9) [TACI_d2 F78T]
F' APRIL: 1
--
BINDER: SLSCRKEQGKFYDHLLRDCISCASGCGQHPKQCAYFCENKLR (receptor, phage library variant, format as m9) [TACI_d2 I92G]
F' APRIL: 0
--
BINDER: SLSCRKEQGKFYDHLLRDCISCASLCGQHPKQCAYFCENKLR (receptor, phage library variant, format as m9) [TACI_d2 I92L]
F' APRIL: 2
--
BINDER: SLSCRKEQGKEYDHLLRDCISCASICGQHPKQCAYFCENKLR (receptor, phage library variant, format as m9) [TACI_d2 F78E]
F' APRIL: 0
